- Tested on: SNB-78
- assay-name: NCI tumour cell line growth inhibition, 48 h
Active and inactive are the calls of the source. No stated cut-off is given here; in the data, active = GI50 up to about 1.1 µM and inactive = higher. Non-standard residues stand in square brackets, D forms with d. Residues, ends and D or L forms follow the SMILES beside them. ξ: configuration not given here. *: point of attachment. NMeF = CN[C@@H](Cc1ccccc1)C(=O)O; ξNMeV = CNC(C(=O)O)C(C)C; Boc = CC(C)(C)OC(=O)*; OBn = c1ccc(CO*)cc1
measured-metric: GI50

>>> experimental_result("O=C1NC2(C=Cc3c(ccc4ccccc34)O2)Oc2ccccc21 (centres undefined)")
"20.7 µM (inactive)"
>>> experimental_result("[N-]=[N+]=NC1C(Cl)C(=O)NC(=O)N1[C@H]1C[C@H](O)[C@@H](CO)O1 (some centres undefined)")
"> 100 µM (inactive)"

Input line: Observed GI50 on SNB-78 for O=Cc1c(Br)[nH]c2ccccc12 , please.
Output line: > 67 µM (inactive)

Input line: Observed GI50 on SNB-78 for CC(C)C(C(=O)N1CCC[C@@H]1C(=O)OCc1ccccc1)N(C)C(=O)C(C(C)C)N(C)C(=O)[C@H](Cc1ccccc1)N(C)C(=O)[C@H](NC(=O)OC(C)(C)C)C(C)C (some centres undefined) (Boc-[dV][NMeF][ξNMeV][ξNMeV][dP]-OBn) , please.
Output line: > 100 µM (inactive)

----------
- Test system: NCI/ADR-RES
- assay-name: NCI tumour cell line growth inhibition, 48 h
Calls of active or inactive are those of the source. Rule as the data show it: active = GI50 up to about 1.1 µM and inactive = higher.
molecules and their reported GI50

Examples from the recorded data:
>>> experimental_result("CN(C)CCNC(=O)Cn1cc([N+](=O)[O-])c(=O)c2ccccc21")
"> 100 µM (inactive)"
>>> experimental_result("COc1ccc2c(c1)CCC(CN1CCN(CCOC(c3ccc(F)cc3)c3ccc(F)cc3)CC1)=C2")
"11.8 µM (inactive)"
>>> experimental_result("Cc1oc(N)c(S(=O)(=O)c2cc3ccccc3[n+]([O-])c2N)c1C")
"> 100 µM (inactive)"
>>> experimental_result("COC(=O)/C1=C/c2c([nH]c3ccccc23)/C(C(=O)OC)=C\\c2c1[nH]c1ccccc21 [CAULERPIN]")
"> 50 µM (inactive)"
>>> experimental_result("CCCC1CC(=O)NC(=O)C1C(=O)OC(C)(C)C (stereo not given)")
"> 100 µM (inactive)"

Here is another molecule to look at.
Input line: Observed GI50 on NCI/ADR-RES for COc1ccccc1-c1cc(O)c2c(C)cc(C)nc2n1 , please.
Output line: 54.7 µM (inactive)

----------
compounds and their reported GI50
- System: EKVX
- assay-name: NCI tumour cell line growth inhibition, 48 h
Active and inactive are the calls of the source. Rule as the data show it: active = GI50 up to about 1.1 µM and inactive = higher.

Input line: Observed GI50 on EKVX for C=CCn1c(=S)sc2c(O)ncnc21 , please.
Output line: > 100 µM (inactive)

Input line: Observed GI50 on EKVX for CCCC(N)C(=O)c1ccccc1 (stereo not drawn) , please.
Output line: > 100 µM (inactive)

Input line: Observed GI50 on EKVX for O=C(O)c1ccc(S(=O)(=O)c2ccccc2[N+](=O)[O-])cc1 , please.
Output line: > 10 µM (inactive)

Input line: Observed GI50 on EKVX for C=C(CO)CC(O)c1cc(OC)ccc1OC (stereo not drawn) , please.
Output line: > 100 µM (inactive)

Input line: Observed GI50 on EKVX for O=C(NCCCNC(=O)c1ccc2cc(O)c(O)cc2c1)c1ccc2cc(O)c(O)cc2c1 , please.
Output line: 27.9 µM (inactive)

----------
- Tested on: UACC-62
- assay-name: NCI tumour cell line growth inhibition, 48 h
Activity calls are given as the source filed them. No stated cut-off is given here; in the data, active = GI50 up to about 1.1 µM and inactive = higher.
measured-metric: GI50

Examples from the recorded data:
>>> experimental_result("Fc1cccc(F)c1C1SCc2nc3cc(Cl)ccc3n21 (stereo unspecified)")
"37.9 µM (inactive)"
>>> experimental_result("C=C[C@H]1CN2CCc3c([nH]c4c([C@@H]5CCCN5C)c(O)ccc34)[C@@H]2C[C@@H]1C[C@H]1c2[nH]c3ccccc3c2CCN1C")
"1.68 µM (inactive)"
>>> experimental_result("COc1ccc2cc(-c3ccc(OC)c(OC)c3)c(=O)oc2c1")
"> 100 µM (inactive)"
>>> experimental_result("COc1ccc(/N=[N+](\\[O-])c2ccc(OC)cc2)cc1")
"> 100 µM (inactive)"
>>> experimental_result("COC(=O)C1=CC2CC1C(S(=O)(=O)c1ccccc1)C2S(=O)(=O)c1ccccc1 (stereo unspecified)")
"22.1 µM (inactive)"

Input line: Tell me the measured GI50 of N=S(c1ccccc1[N+](=O)[O-])c1ccccc1[N+](=O)[O-] , please.
Output line: 4.34 µM (inactive)

----------
- Tested on: OVCAR-4
- assay-name: NCI tumour cell line growth inhibition, 48 h
Calls of active or inactive are those of the source. No stated cut-off is given here; in the data, active = GI50 up to about 1.1 µM and inactive = higher.
measured-metric: GI50

Examples from the recorded data:
>>> experimental_result("Cc1c2c(n(CCc3ccccc3)c1C)N(C)N=C(C#N)S2(=O)=O")
"> 100 µM (inactive)"
>>> experimental_result("O=C(Cn1cc(Br)c(=O)[nH]c1=O)c1ccc(-c2ccccc2)cc1")
"> 15.8 µM (inactive)"
>>> experimental_result("NC(=O)CC(/N=C1\\C(=O)OC(C(O)CO)\\C1=N/C(CC(N)=O)C(=O)O)C(=O)O (stereo not given)")
"> 100 µM (inactive)"
>>> experimental_result("COc1ccccc1-c1cc(O)c2c(C)cc(C)nc2n1")
"56.1 µM (inactive)"

Input line: Tell me the measured GI50 of CCCCc1ccc(-n2c3nc(=O)n(C)c(=O)c-3nc3ccccc32)cc1 , please.
Output line: 8 µM (inactive)

----------
compounds and their reported GI50
- System: MDA-MB-231
- assay-name: NCI tumour cell line growth inhibition, 48 h
The source made the active and inactive calls. Cut-off read from the data, not from the text of the source: active = GI50 up to about 1.1 µM and inactive = higher.

Examples from the recorded data:
>>> experimental_result("O=C(CCCN1CCC2(CC1)/C(=N/C1CCCCC1)NC(=O)N2c1ccccc1)c1ccc(F)cc1")
"12.4 µM (inactive)"
>>> experimental_result("N#CC1Nc2ccccc2[C@@H](O)C1O (some centres not stated)")
"> 100 µM (inactive)"
>>> experimental_result("Cc1ccc(N/C(SCc2ccccc2)=C(\\C(Cl)=C(Cl)Cl)[N+](=O)[O-])c(C)c1")
"14.6 µM (inactive)"
>>> experimental_result("O=C(N/N=C\\c1cccc2ccccc12)Nc1cccc2ccccc12")
"16 µM (inactive)"
>>> experimental_result("CS(=O)(=O)c1ccc(/N=C/C=C/Nc2ccc(S(C)(=O)=O)cc2)cc1")
"> 100 µM (inactive)"

Input line: Tell me the measured GI50 of C#CCn1c(=O)c(I)cn(/C(=C/C(=O)OCC)C(=O)OCC)c1=O , please.
Output line: 15.2 µM (inactive)

Input line: Tell me the measured GI50 of O=C1C(c2c(O)[nH]c3ccc([N+](=O)[O-])cc23)=Nc2ccccc21 , please.
Output line: 31.7 µM (inactive)

----------
compounds and their reported GI50
- Test system: OVCAR-3
- assay-name: NCI tumour cell line growth inhibition, 48 h
The source made the active and inactive calls. No stated cut-off is given here; in the data, active = GI50 up to about 1.1 µM and inactive = higher.

Examples from the recorded data:
>>> experimental_result("O=C(O)C1Cc2c([nH]c3ccccc23)C=N1 (stereo unspecified)")
"> 100 µM (inactive)"
>>> experimental_result("Brc1sc(Br)c2c1[C@H](Br)C[C@@H]2Br")
"41.9 µM (inactive)"
>>> experimental_result("Cc1ccc(S(=O)(=O)NC(=O)Nc2nc(Cl)cc(Cl)n2)cc1")
"> 100 µM (inactive)"
>>> experimental_result("CC(=O)Nc1ccc(S(=O)(=O)NN(C)S(=O)(=O)c2ccc(C)cc2)cc1")
"> 100 µM (inactive)"
>>> experimental_result("NC(=O)OCC1=C(COC(N)=O)C(=O)c2c(O)ccc(O)c2C1=O")
"> 100 µM (inactive)"
>>> experimental_result("COc1ccc(NC2Oc3cc4c(cc3C(c3cccc(OC)c3OC)C2C)OCO4)cc1 (stereo unspecified)")
"5.35 µM (inactive)"
>>> experimental_result("NC(=O)CCC(Nc1c2ccccc2nc2ccccc12)C(=O)O (stereo unspecified)")
"56.8 µM (inactive)"
>>> experimental_result("CN(OC(=O)CC(=O)c1ccccc1)C(=O)Cc1ccccc1")
"> 100 µM (inactive)"
>>> experimental_result("CC1(C)OC(CCO)CN1C(=O)OCc1ccccc1 (stereo unspecified)")
"> 100 µM (inactive)"
>>> experimental_result("CCCCSCC(NC(=O)/C=C/c1c(C)[nH]c(=O)[nH]c1=O)C(=O)OC (stereo unspecified)")
"13.2 µM (inactive)"

Input line: Tell me the measured GI50 of CCOC(=O)C1(Cc2ccccc2)Cc2cc3c(cc2C1=O)CCC3 (stereo unspecified) , please.
Output line: > 100 µM (inactive)

----------
- System: UO-31
- assay-name: NCI tumour cell line growth inhibition, 48 h
The source made the active and inactive calls. Cut-off read from the data, not from the text of the source: active = GI50 up to about 1.1 µM and inactive = higher.
Give one outcome, nothing more. List: active, inactive

Below are worked cases with known answers.
>>> class_assignment("NCCc1ccc2c(c1)C(=O)c1c(O)ccc(O)c1C2=O")
"inactive"
>>> class_assignment("O=C1CCC(=O)c2ccccc2N1")
"inactive"

Input line: Give the logged outcome of this assay for the following compound: C/C=C1\CN(C(=O)OC(C)(C)C)C1C(=O)OC(C)(C)C (configuration not stated)
Output line: inactive

Input line: Give the logged outcome of this assay for the following compound: Cc1cc2ccccc2n1CC(=O)N1CCCC1
Output line: inactive

Input line: Give the logged outcome of this assay for the following compound: C=CCC1(C)CCCN(Cc2ccccc2)C1=O (configuration not stated)
Output line: inactive

Input line: Give the logged outcome of this assay for the following compound: CN(C)CCCCN1c2ccccc2Sc2ccc(N=[N+]=[N-])cc21
Output line: inactive

Input line: Give the logged outcome of this assay for the following compound: COc1ccc2c(c1)CCCc1c-2nc2ccccc2c1N
Output line: inactive

Input line: Give the logged outcome of this assay for the following compound: Cc1ccccc1NC(=O)C(=O)C1CN(c2ccccc2)N=C1N (configuration not stated)
Output line: inactive

Input line: Give the logged outcome of this assay for the following compound: COC(=O)c1c(O)ccc2[nH]c3c(O)c4ccccc4cc3c12
Output line: inactive

Input line: Give the logged outcome of this assay for the following compound: CC(=O)O[C@H]1C[C@H](O[C@H]2[C@@H](O)C[C@H](O[C@H]3[C@@H](O)C[C@H](O[C@H]4CC[C@@]5(C)[C@H](CC[C@@H]6[C@@H]5CC[C@]5(C)[C@@H](C7=CC(=O)OC7)CC[C@]65O)C4)O[C@@H]3C)O[C@@H]2C)O[C@H](C)[C@H]1O[C@@H]1O[C@H](CO)[C@@H](O)[C@H](O)[C@H]1O
Output line: active

Input line: Give the logged outcome of this assay for the following compound: NCCc1nc(-c2nc(C(=O)O)cs2)cs1
Output line: inactive

Input line: Give the logged outcome of this assay for the following compound: CC1CCCCc2nc3c(c(=O)n21)CCCC3 (configuration not stated)
Output line: inactive

// provenance: ChEMBL document CHEMBL1201862
